Let's go through some recorded pIC50 values for HSD17B1 (Homo sapiens (Human)) together.
pIC50: −log10 of the molar value.

Take a look at these entries with their results.
Cc1cnc2c(c1)Oc1ccccc1C2NC(=O)c1ccc(C(F)(F)F)[nH]c1=O (stereo not drawn): < 4.52
O=C(NC(c1ccc(Cl)cc1)c1ccc(Cl)cc1)c1ccc(C(F)(F)F)[nH]c1=O: < 4.52

Read the next record carefully.
The molecule CCC1Oc2ccc(C)cc2C1NC(=O)c1ccc(C(F)(F)F)[nH]c1=O (stereo not drawn) on HSD17B1 (Homo sapiens (Human)): pIC50 was < 4.52

====

Recorded microsomal CLint at 1 μM for the following molecules
# protocol-text: Microsome stability assay, human liver microsomes
# Assay type: in vitro ADME
# test-context: human, human liver microsomes, pooled; 1 μM compound, 0.5 mg/mL microsomal protein, NADPH, 37° C.; read-out: Microsome Stability Human liver microsomes Cl

O=C(NC(c1ccccc1)c1ccccc1Cl)c1ccc(C(F)(F)F)[nH]c1=O (stereo not drawn): < 9.6 µL/min/mg
COc1ccc2c(c1)Sc1cc(OC)ccc1C2NC(=O)c1ccc(C(F)(F)F)[nH]c1=O: < 9.6 µL/min/mg

Now, please, on to the next molecule.
microsomal CLint at 1 μM measured on O=C(NC(c1ccc(C(F)(F)F)cc1)c1ccc(C(F)(F)F)cc1)c1ccc(C(F)(F)F)[nH]c1=O = < 9.6 µL/min/mg

====

# protocol-text: Microsome stability assay, human liver microsomes
# Format: in vitro ADME
# test-context: human, human liver microsomes, pooled; 1 μM compound, 0.5 mg/mL microsomal protein, NADPH, 37° C.; read-out: Microsome Stability Human liver microsomes T½
measurement-type: half-life at 1 h, 1 µM (min)
Give the value in min but do not write min after it.

Before answering, review these 2 worked examples.
CCC1CCc2cc(Cl)ccc2C1NC(=O)c1ccc(C(F)(F)F)[nH]c1=O (stereo not shown): 9.3
CCCC1Cc2cc(C)ccc2C(NC(=O)c2ccc(C(F)(F)F)[nH]c2=O)C1 (stereo not shown): 12.3

Reported half-life at 1 h, 1 µM for O=C(NC(c1ccccc1)c1ccc(Cl)cc1)c1ccc(C(F)(F)F)[nH]c1=O (stereo not shown) was 128

half-life at 1 h, 1 µM reading for Cc1ccccc1C(NC(=O)c1ccc(C(F)(F)F)[nH]c1=O)c1ccccc1 (stereo not shown) : 26.6

In plain terms, Cc1ccc(C(CC2CC2)NC(=O)c2ccc(C(F)(F)F)[nH]c2=O)cc1 (stereo not shown) has a documented half-life at 1 h, 1 µM of 2.99

Short answer for COc1ccc2c(c1)CC(OC)C2NC(=O)c1ccc(C(F)(F)F)[nH]c1=O (stereo not shown) : half-life at 1 h, 1 µM was 14.8

Briefly, half-life at 1 h, 1 µM measured for O=C(NC(c1ccccc1)c1ccccc1)c1ccc(C(F)(F)F)[nH]c1=O : 103

# half-life at 1 h, 1 µM (compound: COc1ccc(C(NC(=O)c2ccc(C(F)(F)F)[nH]c2=O)c2ccccc2)cc1 (stereo not shown) ) is 22.2

half-life at 1 h, 1 µM reported for this compound CCC1CCc2cc(O)ccc2C1NC(=O)c1ccc(C(F)(F)F)[nH]c1=O (stereo not shown) : 141

Entry under test: CCC1Cc2cc(C)ccc2C(NC(=O)c2ccc(C(F)(F)F)[nH]c2=O)C1 (stereo not shown) . Its half-life at 1 h, 1 µM was 9.26

====

# tested-system: HSD17B13 (Homo sapiens (Human))
# Sequence (Q7Z5P4 other isoform, or with tags, fused parts or gaps): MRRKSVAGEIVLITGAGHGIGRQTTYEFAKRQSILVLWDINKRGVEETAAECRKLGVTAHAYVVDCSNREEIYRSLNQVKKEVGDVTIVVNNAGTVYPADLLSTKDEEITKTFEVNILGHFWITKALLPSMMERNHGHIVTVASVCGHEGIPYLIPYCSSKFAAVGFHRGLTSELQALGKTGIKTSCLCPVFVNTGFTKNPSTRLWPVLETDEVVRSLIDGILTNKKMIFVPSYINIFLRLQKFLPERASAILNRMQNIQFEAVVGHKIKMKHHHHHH
# protocol-text: HSD17B13 enzymatic inhibition assay (150 nM or 50 nM HSD17B13)
# Assay type: biochemical
# test-context: 50 nM HSD17B13; read-out: Inhibition of 50 nM of HSD17B13 IC50
# key: entry, value: log10(IC50)
Scale: log10; quantity: IC50; unit before log: nM

O=C(NC(c1ccccc1)c1ccc(C2CCCC2)cc1)c1ccc(C(F)(F)F)[nH]c1=O (stereo not drawn) [Compound 38]: 2.65
Cc1ccc2c(c1)Oc1cccnc1C2NC(=O)c1ccc(C(F)(F)F)[nH]c1=O (stereo not drawn) [Compound 326]: 1.78
Cc1ccc2c(c1)Sc1cc(C)ccc1C2NC(=O)c1cc(C)c(C(F)(F)F)[nH]c1=O [Compound 515]: 1.48
Cc1ccc2c(c1)Oc1cc(C)ccc1C2NC(=O)c1cc(N2CCN(Cc3ccccc3)CC2)c(C(F)(F)F)[nH]c1=O [Compound 430]: 1.60

# ---- query compound ----
Input Cc1cccc(C(NC(=O)c2ccc(C(F)(F)F)[nH]c2=O)c2ccccc2)c1 (stereo not drawn) [Compound 490] . Output log10(IC50): 2.77

====

# protocol-text: Microsome stability assay, human liver microsomes
# Type: in vitro ADME
# test-context: human, human liver microsomes, pooled; 1 μM compound, 0.5 mg/mL microsomal protein, NADPH, 37° C.; read-out: Microsome Stability Human liver microsomes T½
# Experimental: Compounds of the disclosure were screened in microsome stability assays. […] A single point for each test condition (n=1) was obtained, and samples were analyzed by LC/MS/MS. Disappearance of the test compound was assessed based on peak area ratios of analyte/IS (no standard curve).
measurement-type: half-life at 1 μM (min)
API: value field is a number in min; no unit string.

Worked set:
CCC[C@H]1C[C@@H](NC(=O)c2ccc(C(F)(F)F)[nH]c2=O)c2cc(C)ccc2N1 [Compound 362]: 90.7
CCC[C@H]1Oc2cc(C)ccc2[C@@H]1NC(=O)c1ccc(C(F)(F)F)[nH]c1=O [Compound 358]: 9
Cc1ccc2c(c1)OCCC2NC(=O)c1ccc(C(F)(F)F)[nH]c1=O (stereo not shown) [Compound 441]: 52.5
O=C(NC(c1ccccc1)c1ccc(Oc2ccccc2)cc1)c1ccc(C(F)(F)F)[nH]c1=O (stereo not shown) [Compound 16]: 30.7

As a next step, examine the molecule that follows.
Lab note: CCC[C@H]1Oc2ccc(C)cc2[C@@H]1NC(=O)c1ccc(C(F)(F)F)[nH]c1=O [Compound 353] gave half-life at 1 μM of 39.1

====

# protocol-text: Microsome stability assay, human liver microsomes
# Assay type: in vitro ADME
# test-context: 60 min; 1 μM compound, 0.5 mg/mL microsomal protein
measurement-type: Microsome Stability Human liver microsomes % Remaining @60 min (%)
Write it as a number; the unit % goes unstated.

What the record says about COc1ccc2c(c1)Oc1cc(OC)ccc1C2NC(=O)c1ccc(C(F)F)[nH]c1=O : Microsome Stability Human liver microsomes % Remaining @60 min is 66.40

Record Cc1ccc2c(c1)Oc1cc(C)ccc1C2NC(=O)c1ccc(C(F)(F)F)[nH]c1=O , field Microsome Stability Human liver microsomes % Remaining @60 min: 110.00

Per the records, this compound ( CC[C@@H]1C[C@H](NC(=O)c2ccc(C(F)(F)F)[nH]c2=O)c2ccc(C)cc2N1 ) has Microsome Stability Human liver microsomes % Remaining @60 min equal to 27.30

====

Below, each entry is listed alongside its reported log10 half-life at 1 h, 1 µM.
# protocol-text: Microsome stability assay, human liver microsomes
# Format: in vitro ADME
# test-context: human, human liver microsomes, pooled; 1 μM compound, 0.5 mg/mL microsomal protein, NADPH, 37° C.; read-out: Microsome Stability Human liver microsomes T½
Short version: log10 scale, half-life at 1 h, 1 µM, min.

Please review the following examples before continuing.
CC[C@@H]1Oc2cc(C)ccc2[C@H]1NC(=O)c1ccc(C(F)(F)F)[nH]c1=O: 0.64
COc1ccc(C(NC(=O)c2ccc(C(F)(F)F)[nH]c2=O)c2ccc(OC)cc2)cc1: 1.03

Data point: Cc1ccc2c(c1)CCCC2NC(=O)c1ccc(C(F)(F)F)[nH]c1=O (stereo not drawn) ; log10 half-life at 1 h, 1 µM = 0.40

Per the record, O=C(NC1c2ccc(Cl)cc2Oc2cccc(Cl)c21)c1ccc(C(F)(F)F)[nH]c1=O (stereo not drawn) has log10 half-life at 1 h, 1 µM of 1.78

Recorded result, O=C(NC1c2ccccc2Oc2ccccc21)c1ccc(C(F)(F)F)[nH]c1=O , log10 half-life at 1 h, 1 µM: 0.90

get_value(item= CCC[C@@H]1C[C@@H](NC(=O)c2ccc(C(F)(F)F)[nH]c2=O)c2ccc(C)cc2N1 , readout=log10 half-life at 1 h, 1 µM) returns 1.65

====

# tested-system: HSD17B13 (Homo sapiens (Human))
# protocol-text: HSD17B13 enzymatic inhibition assay (150 nM or 50 nM HSD17B13)
# Type: biochemical
# test-context: 50 nM HSD17B13; read-out: Inhibition of 50 nM of HSD17B13 IC50
pIC50: −log10 of the molar value.
Label class 1 when pIC50 >= 7; otherwise class 0.

Some solved cases for reference:
O=C(NC1c2ccccc2-c2ccc(C(F)(F)F)cc21)c1ccc(C(F)(F)F)[nH]c1=O (stereo not drawn): class 0
CCCc1ccc2c(c1)C(NC(=O)c1ccc(C(F)(F)F)[nH]c1=O)c1ccccc1S2 (stereo not drawn): class 0
O=C(NC(c1ccccc1)c1ccc(-c2ncccn2)cc1)c1ccc(C(F)(F)F)[nH]c1=O (stereo not drawn): class 0
O=C(NC(c1ccccc1)c1ccccc1C(F)(F)F)c1ccc(C(F)(F)F)[nH]c1=O (stereo not drawn) [Compound 17A]: class 0
O=C(NC1CCCc2c(CCc3ccccc3)cccc21)c1ccc(C(F)(F)F)[nH]c1=O (stereo not drawn): class 0

Task item: Given O=C(NC1CCOc2ccccc21)c1ccc(C(F)(F)F)[nH]c1=O (stereo not drawn) , state whether its pIC50 is at least 7.
Reply: class 0
